# test-system: T1, TIM-3 protein on human peripheral blood mononuclear lymphocytes (PBMC) (human, UniProt Q8TDQ0 22-301)
# T1 sequence: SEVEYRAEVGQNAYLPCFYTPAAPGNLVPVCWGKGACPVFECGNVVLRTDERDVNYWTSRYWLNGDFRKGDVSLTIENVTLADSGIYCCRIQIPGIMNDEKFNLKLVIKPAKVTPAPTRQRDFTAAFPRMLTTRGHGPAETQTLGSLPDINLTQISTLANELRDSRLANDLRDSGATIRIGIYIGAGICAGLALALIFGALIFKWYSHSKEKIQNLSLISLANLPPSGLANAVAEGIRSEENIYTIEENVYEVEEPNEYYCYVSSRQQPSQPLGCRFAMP
# method-summary: cell-based or functional assay
IFN-γ production (donor X); antibody 1 µg/ml, N = 2 values for the binders below.
The figure you give is taken to be in pg/mL; do not add the unit.

Field: example entries. Status: answers known.
134H3G6 fully human TIM-3 antibody (human IgG4, kappa) (antibody, V domains shown) VH: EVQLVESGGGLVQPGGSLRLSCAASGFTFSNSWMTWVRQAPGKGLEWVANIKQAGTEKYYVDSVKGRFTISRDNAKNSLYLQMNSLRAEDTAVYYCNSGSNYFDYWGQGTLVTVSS VL: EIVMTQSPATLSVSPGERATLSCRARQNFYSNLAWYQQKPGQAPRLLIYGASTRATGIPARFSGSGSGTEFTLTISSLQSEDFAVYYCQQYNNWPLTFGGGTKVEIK
2890
57F4E5 fully human TIM-3 antibody (human IgG4, kappa) (antibody, V domains shown) VH: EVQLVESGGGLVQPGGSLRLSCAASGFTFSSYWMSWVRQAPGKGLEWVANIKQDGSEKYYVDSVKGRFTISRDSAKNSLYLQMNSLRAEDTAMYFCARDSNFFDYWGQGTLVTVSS VL: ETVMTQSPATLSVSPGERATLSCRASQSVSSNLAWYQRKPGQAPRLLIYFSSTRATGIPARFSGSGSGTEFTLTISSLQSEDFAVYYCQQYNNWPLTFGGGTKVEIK
3150
7A4F10 fully human TIM-3 antibody (human IgG4, kappa) (antibody, V domains shown) VH: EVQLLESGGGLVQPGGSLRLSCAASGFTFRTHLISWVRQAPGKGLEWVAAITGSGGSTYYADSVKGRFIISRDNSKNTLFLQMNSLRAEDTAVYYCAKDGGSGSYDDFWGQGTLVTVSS VL: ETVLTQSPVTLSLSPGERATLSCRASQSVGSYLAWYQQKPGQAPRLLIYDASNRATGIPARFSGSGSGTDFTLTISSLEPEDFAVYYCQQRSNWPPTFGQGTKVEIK
2780
18D2H2 fully human TIM-3 antibody (human IgG4, kappa) (antibody, V domains shown) VH: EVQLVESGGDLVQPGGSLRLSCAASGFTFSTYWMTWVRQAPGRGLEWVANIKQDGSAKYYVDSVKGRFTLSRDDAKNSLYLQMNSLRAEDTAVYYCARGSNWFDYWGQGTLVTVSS VL: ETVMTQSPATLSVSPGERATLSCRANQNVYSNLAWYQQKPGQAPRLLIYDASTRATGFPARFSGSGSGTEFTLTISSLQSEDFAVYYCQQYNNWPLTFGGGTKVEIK
3140
39E5H1 fully human TIM-3 antibody (human IgG4, kappa) (antibody, V domains shown) VH: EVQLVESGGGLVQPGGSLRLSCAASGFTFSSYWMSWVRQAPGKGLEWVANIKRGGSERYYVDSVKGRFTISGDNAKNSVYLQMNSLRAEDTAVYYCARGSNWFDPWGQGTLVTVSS VL: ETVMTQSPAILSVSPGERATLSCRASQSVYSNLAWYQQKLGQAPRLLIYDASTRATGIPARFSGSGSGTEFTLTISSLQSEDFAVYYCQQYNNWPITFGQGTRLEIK
3000

Okay, next one:
Item under review: 34B6D8 fully human TIM-3 antibody (human IgG4, kappa) (antibody, V domains shown) VH: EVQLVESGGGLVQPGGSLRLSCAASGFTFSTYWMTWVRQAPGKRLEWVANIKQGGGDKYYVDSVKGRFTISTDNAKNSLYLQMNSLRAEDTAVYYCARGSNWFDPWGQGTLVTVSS VL: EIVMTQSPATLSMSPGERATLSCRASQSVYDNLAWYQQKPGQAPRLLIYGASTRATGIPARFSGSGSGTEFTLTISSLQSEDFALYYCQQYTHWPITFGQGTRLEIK . Reported IFN-γ production (donor X); antibody 1 µg/ml, N = 2?
3550
